ASSAY_TARGET: T1, recombinant human CD73 ectodomain (aa 27-549) with C-terminal His6x tag (human, UniProt P21589 27-549)
T1 construct: also called soluble recombinant human CD73; soluble human CD73
T1 sequence: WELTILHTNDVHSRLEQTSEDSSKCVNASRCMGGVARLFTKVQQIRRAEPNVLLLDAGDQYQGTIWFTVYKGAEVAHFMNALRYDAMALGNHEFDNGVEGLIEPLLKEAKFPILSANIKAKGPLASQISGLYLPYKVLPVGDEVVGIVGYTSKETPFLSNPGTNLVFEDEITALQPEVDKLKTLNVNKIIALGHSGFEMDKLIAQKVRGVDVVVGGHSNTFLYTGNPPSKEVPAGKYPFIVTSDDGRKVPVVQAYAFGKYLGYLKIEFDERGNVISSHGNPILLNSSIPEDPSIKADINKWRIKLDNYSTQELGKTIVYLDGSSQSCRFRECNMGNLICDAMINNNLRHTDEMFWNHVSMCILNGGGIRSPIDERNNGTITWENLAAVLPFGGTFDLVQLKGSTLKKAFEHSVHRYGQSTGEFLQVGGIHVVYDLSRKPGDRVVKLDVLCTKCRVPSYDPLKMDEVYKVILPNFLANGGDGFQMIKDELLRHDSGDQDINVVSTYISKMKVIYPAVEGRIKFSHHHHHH
PROCEDURE_TEXT: BLI (Octet), immobilized Nb-rbIgG hcAb, soluble human CD73 as analyte
Label true (1) when koff is at or above 0.001 s⁻¹; otherwise label false (0).

SB142 rabbit IgG hcAb (Fc fusion, not shown: hinge and Fc-domains of rabbit IgG) heavy: QVQLVESGGGLVQPGGSLRLSCAASGFTFINYHMSWLRQAPGKGLEWVSEIHSRGDITSYTNSVKGRFTISRDNAKNTLYLQMNSLKFDDTAVYYCARSRDLFGEGEYDYWGRGTQVTVSS | false (0)
SB143 rabbit IgG hcAb (Fc fusion, not shown: hinge and Fc-domains of rabbit IgG) heavy: QVQLVESGGGLVQAGGSLRLSCAASGRTFSRSTMGWFRQAPGKERVFVAAIRWIGGTTTYGDSVKGRFTISVDNAKNTLYLQMNSLKPEDTAVYYCAATAGGPYYLGGRDILYDYWGQGTQVTVSS | true (1)
SB96 rabbit IgG hcAb (Fc fusion, VHH fused upstream of hinge and Fc of rabbit IgG; also called Nb-rbIgG hcAb SB96; not shown: hinge and Fc-domains of rabbit IgG) heavy: DVQLQASGGGLVQPGGSLRLSCTASGFTLDYLSIGWFRQVPGKEREGVSCINSSGGSTNYADSLKGRLTISRDNAKNTVYLQMNSLKPEDTAVYYCAAHKYYYCSNKVEVFDYWGQGTPVTVSS | false (0)
SB139 rabbit IgG hcAb (Fc fusion, not shown: hinge and Fc-domains of rabbit IgG) heavy: QVQLQESGGGLVQAGGSLRLSCAASENIFNIYGMGWYRQAPGKLRDLVAKITSGGRTTYADSVKGRFTISGDNAKNTVYLQMNSLKPEDTAVYYCNSYYYWGQGTQVTVSS | true (1)
SB98 rabbit IgG hcAb (Fc fusion, not shown: hinge and Fc-domains of rabbit IgG) heavy: QVKLQESGGGLVQPGGSLRLSCAASGFTLDYYTIGWFRQAPGKEREGVSCISSSGGITNYADSVKGRLTISRDNAKNTVYLQMNSLKPEDTAVYYCAAQKYYYCSGKAEVYDYWGQGTQVTVSS | true (1)
SB108 rabbit IgG hcAb (Fc fusion, not shown: hinge and Fc-domains of rabbit IgG) heavy: QVKLQESGGGLVHSGGSLRLSCAVSGFALDYYTIGWFRQAPGKEREGVSCISSSGSSTNYADSMKGRLTISRDNAKNTVYLQMNSLKPEDTAVYYCAAQRYYYCSDKVAVYDYWGQGTQVTVSS | false (0)
SB144 rabbit IgG hcAb (Fc fusion, not shown: hinge and Fc-domains of rabbit IgG) heavy: QVQLVESGGGLVQAGGSLRLSCAASGRTFSGSTMGWFRQAPGKERAFVAAIRWIGGTAKYGDSVKGRFTISIDNAKNTLYLQMNSLKPEDTAVYYCAATAGGPDYLGGRDIVYDYWGQGTQVTVSS | false (0)
SB124 rabbit IgG hcAb (Fc fusion, not shown: hinge and Fc-domains of rabbit IgG) heavy: QVQLQESGGGLVQPGGSLRLSCAASGFTLDYYTIGWFRQAPGKEREGVSCVSSSGDRTDYLESVKGRLTISRDNAKNTVYLQMNSLKPEDTGVYYCAAQKYYYCSGKVEVYDYWGQGTQVTVSS | true (1)
